These measurements were taken from patent US7528148B2.

assayed_target: PDE4B (human recombinant) (Homo sapiens, UniProt Q07343)
Construct: made in house; host or cells: Saccharomyces cerevisiae strain GL62 (PDE-deficient)
Sequence (Q07343 1-564 isoform Q07343-2): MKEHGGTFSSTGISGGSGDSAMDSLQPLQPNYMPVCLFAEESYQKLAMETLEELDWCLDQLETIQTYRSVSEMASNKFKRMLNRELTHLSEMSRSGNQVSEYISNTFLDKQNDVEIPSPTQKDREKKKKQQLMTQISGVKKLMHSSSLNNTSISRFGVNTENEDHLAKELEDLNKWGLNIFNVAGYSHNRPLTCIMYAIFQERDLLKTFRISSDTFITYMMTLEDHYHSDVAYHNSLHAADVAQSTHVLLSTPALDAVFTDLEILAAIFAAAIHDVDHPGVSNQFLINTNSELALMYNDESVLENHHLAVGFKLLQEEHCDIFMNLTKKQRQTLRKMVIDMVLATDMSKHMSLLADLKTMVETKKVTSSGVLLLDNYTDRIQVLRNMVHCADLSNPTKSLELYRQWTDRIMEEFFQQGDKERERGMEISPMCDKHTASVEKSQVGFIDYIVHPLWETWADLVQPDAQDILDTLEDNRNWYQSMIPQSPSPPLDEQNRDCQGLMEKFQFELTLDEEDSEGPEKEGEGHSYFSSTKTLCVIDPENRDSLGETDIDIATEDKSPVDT
experimental_protocol: PDE4B inhibition, radioactive SPA or IMAP fluorescence polarisation (FP) assay
Type: biochemical
applied_conditions: one reading or average of ca. 2-6 readings, accurate only to about ±0.5 log unit, read-out: PDE4B pIC50 (±about 0.5) (converted)
Source text: Human recombinant PDE4B, in particular the 2B splice variant thereof (HSPDE4B2B), is disclosed in WO 94/20079 and also M. M. McLaughlin et al., “A low Km, rolipram-sensitive, cAMP-specific phosphodiesterase from human brain: cloning and expression of cDNA, biochemical characterisation of recombinant protein, and tissue distribution of mRNA”, J. Biol. Chem., 1993, 268, 6470-6476. Human recombinant PDE4B was expressed in the PDE-deficient yeast Saccharomyces cerevisiae strain GL62. […]
IC50 values, listed per item

Short answer please: IC50, PDE4B (human recombinant) (Homo sapiens, UniProt Q07343), entry CCn1ncc2c(N[C@@H](C)C(C)C)c(-c3nnc(CS(C)(=O)=O)o3)cnc21
0.794 to 31.6 nM

Short answer please: IC50, PDE4B (human recombinant) (Homo sapiens, UniProt Q07343), entry CCn1ncc2c(N[C@H]3CC[C@H](O)CC3)c(-c3nnc(C)o3)cnc21
63.1 to 251 nM

Short answer please: IC50, PDE4B (human recombinant) (Homo sapiens, UniProt Q07343), entry CCn1ncc2c(NC3CCCCC3)c(-c3nnc(C(C)C)o3)cnc21
6.31 nM

Short answer please: IC50, PDE4B (human recombinant) (Homo sapiens, UniProt Q07343), entry CCn1ncc2c(NC3CCCOC3)c(-c3nnc(C)o3)cnc21 (stereo not drawn)
0.794 to 31.6 nM

Short answer please: IC50, PDE4B (human recombinant) (Homo sapiens, UniProt Q07343), entry CCn1ncc2c(NC3CCC(=O)CC3)c(-c3nnc(C)o3)cnc21
0.794 to 31.6 nM

Short answer please: IC50, PDE4B (human recombinant) (Homo sapiens, UniProt Q07343), entry CCn1ncc2c(NC3CCCCC3)c(-c3nnc(CS(C)(=O)=O)o3)cnc21
6.31 nM

Short answer please: IC50, PDE4B (human recombinant) (Homo sapiens, UniProt Q07343), entry CCn1ncc2c(NC3CCOCC3)c(C3=N[C@@H](c4ccccc4)CO3)cnc21
0.794 to 31.6 nM

Short answer please: IC50, PDE4B (human recombinant) (Homo sapiens, UniProt Q07343), entry CCn1ncc2c(NC3CCOCC3)c(-c3nnc(CN4CCOCC4)o3)cnc21
0.794 to 31.6 nM

Short answer please: IC50, PDE4B (human recombinant) (Homo sapiens, UniProt Q07343), entry CCn1ncc2c(NC3CCOCC3)c(-c3nnc(C4CCOCC4)o3)cnc21
0.794 to 31.6 nM

Short answer please: IC50, PDE4B (human recombinant) (Homo sapiens, UniProt Q07343), entry CCCn1ncc2c(NC3CCOCC3)c(-c3nnc(C)o3)cnc21
63.1 to 251 nM

New cases:
Short answer please: IC50, PDE4B (human recombinant) (Homo sapiens, UniProt Q07343), entry CCn1ncc2c(NCC(C)C)c(-c3nnc(C)o3)cnc21
12.6 nM

* * *

assayed_target: PDE4B (human recombinant) (Homo sapiens, UniProt Q07343)
Construct: made in house; host or cells: Saccharomyces cerevisiae strain GL62 (PDE-deficient)
experimental_protocol: PDE4B inhibition, radioactive SPA or IMAP fluorescence polarisation (FP) assay
Assay type: biochemical
applied_conditions: one reading or average of ca. 2-6 readings, accurate only to about ±0.5 log unit, read-out: PDE4B pIC50 (±about 0.5) (converted)
Source text: Human recombinant PDE4B, in particular the 2B splice variant thereof (HSPDE4B2B), is disclosed in WO 94/20079 and also M. M. McLaughlin et al., “A low Km, rolipram-sensitive, cAMP-specific phosphodiesterase from human brain: cloning and expression of cDNA, biochemical characterisation of recombinant protein, and tissue distribution of mRNA”, J. Biol. Chem., 1993, 268, 6470-6476. Human recombinant PDE4B was expressed in the PDE-deficient yeast Saccharomyces cerevisiae strain GL62. […]
reported_property: IC50

The cases that follow already have their IC50 on record.
I have this compound here, CCn1ncc2c(NC3CCOCC3)c(-c3nnc(CN4CCN(C)CC4)o3)cnc21 , and I need its recorded IC50.
31.6 nM

I have this compound here, CCn1ncc2c(NC3CCOCC3)c(-c3nnc(CN(C)C(C)=O)o3)cnc21 , and I need its recorded IC50.
0.794 to 31.6 nM

I have this compound here, CCn1ncc2c(Nc3ccc(F)cc3)c(-c3nc(C)no3)cnc21 , and I need its recorded IC50.
63.1 to 251 nM

I have this compound here, CCn1ncc2c(NC3CCOCC3)c(-c3nnc(C4CCCO4)o3)cnc21 (centres unmarked) , and I need its recorded IC50.
0.794 to 31.6 nM

New cases:
I have this compound here, CCn1ncc2c(NC3CCOCC3)c(-c3nnc(CC4CCOCC4)o3)cnc21 , and I need its recorded IC50.
0.794 to 31.6 nM
